tested on: human vascular endothelial cells (HUVEC); assay: Proliferation assay in HUVEC (phosphatase activity); assay type: cell-based; conditions: 168 h, read-out: IC50 (dose required to inhibit proliferation to 50% of control), FIG. 2b, assay on day 7
Where a name gives a salt, the structure may show the parent alone.
measurement_name: IC50

So the reported IC50 for C[C@@H]1CN(CCCn2c3ccccc3c3ccccc32)C[C@H](C)N1 [Rimcazole, dihydrochloride] , on human vascular endothelial cells (HUVEC), turned out to be < 5 µM
